For each entry below, report its EC50 cAMP, DiscoveRx value.
# assay-system: T1, human PAC1 receptor (human, UniProt P41586 21-468)
# T1 sequence (looked up): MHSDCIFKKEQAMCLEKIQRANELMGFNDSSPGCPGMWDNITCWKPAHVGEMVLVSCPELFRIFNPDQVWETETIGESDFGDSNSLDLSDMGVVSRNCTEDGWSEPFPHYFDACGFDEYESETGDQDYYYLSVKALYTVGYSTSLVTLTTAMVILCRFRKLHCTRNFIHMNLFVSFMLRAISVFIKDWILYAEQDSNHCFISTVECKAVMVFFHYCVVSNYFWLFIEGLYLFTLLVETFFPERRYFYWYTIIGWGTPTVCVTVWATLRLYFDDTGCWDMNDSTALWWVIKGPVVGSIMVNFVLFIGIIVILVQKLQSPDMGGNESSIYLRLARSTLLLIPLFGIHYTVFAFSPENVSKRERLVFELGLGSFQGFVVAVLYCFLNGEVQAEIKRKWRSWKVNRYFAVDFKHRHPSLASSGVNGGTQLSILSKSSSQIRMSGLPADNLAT
# method: cell-based or functional assay
Where no end group is shown, it is not given here.
Give your result in nM as a bare value.

Dear colleague, I am looking for the recorded EC50 cAMP, DiscoveRx of the following binder: HSDAVFTDNYTRLRKQVAAKKYLQSIKNKIYGGPSSGAPPPS [P76]
15.9

Sample HSDATFTDNYTRLRKQVAAKKYLQSIKNKRYGGPSSGAPPPS [P62] — what was its EC50 cAMP, DiscoveRx?
137

Need EC50 cAMP, DiscoveRx of HSDAVFTDNYTRFRKQVAAKKYLQSIKNKRYGGPSSGAPPPS [P26] , thanks.
84

Can you share its EC50 cAMP, DiscoveRx? I mean this binder: HSDAVFTDNYTRLRRQVAARRYLQSIRNRRYGGPSSGAPPPS (not fully specified) [P71]
14.6

Hey, just so you know, these numbers are from patent US20080026996A1.
